Assign VI30 to each entry below.
# System: Rattus norvegicus
# EXPERIMENTAL_PROTOCOL: Antianxiety effect in cook-davidson behavior test at 1 mg/kg of compound administered perorally in rats expressed as mean percent change
# Assay type: functional
# RUN_CONDITIONS: route oral
Answers are plain numbers, in %.

Before answering, review these 3 worked examples.
Q: Look up VI30: `COc1ccc(-n2nc3c4ccccc4[nH]cc-3c2=O)cc1`
Result: 6.5

Q: Look up VI30: O=C1C2C=Nc3ccccc3C2=NN1c1ccccc1 (centres undefined) [CGS-8216]
Result: 0.1

Q: Look up VI30: CN1C(=O)CN=C(c2ccccc2)c2cc(Cl)ccc21 [DIAZEPAM]
Result: 5.9

For the next question, use this compound.
Q: Look up VI30: O=C1C2C=Nc3ccccc3C2=NN1c1ccc(Cl)cc1 (centres undefined) [CGS-9896]
Result: 0.1

###

# STUDY_SYSTEM: GABA-A receptor; anion channel
# EXPERIMENTAL_PROTOCOL: In vitro inhibition of binding to GABA-A central benzodiazepine-receptor of rat brain
Assign pIC50 to each entry below.
Answers are plain numbers, as −log10 of the molar value.

Before answering, review these 2 worked examples.
Q: Look up pIC50: O=C1C2C=Nc3ccccc3C2=NN1c1ccc(Cl)cc1 (stereo not drawn)
Result: 9.22

Q: Look up pIC50: O=C1C2C=Nc3ccccc3C2=NN1c1ccccc1 (stereo not drawn)
Result: 9.40

For the next question, use this compound.
Q: Look up pIC50: `COc1ccc(-n2nc3c4ccccc4[nH]cc-3c2=O)cc1`
Result: 10.00
